Target: IL16_1, Q14005
Sequence (Q14005 210-306): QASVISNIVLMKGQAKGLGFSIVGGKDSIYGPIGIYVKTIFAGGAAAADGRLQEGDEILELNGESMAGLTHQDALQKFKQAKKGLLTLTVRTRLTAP
Assay: holdup assay
Parameters: key: below the threshold = too weak to quantify, mostly under pKd 3.1 to 4
Settings: plain residues with an end cap or a label only (N-terminal biotin on a linker: ttds)
readout name: pKd

Reference set (7 entries):
binder="KQVVPFSSSV [GDA, Q9Y2T3]" result=3.86
binder="SRSRRRETAL [HPV33-E6, P06427]" result="below the threshold"
binder="QRPYRRESEI [KCNJ12, Q14500]" result="below the threshold"
binder="FVETQHQTQV [FAT3, Q8TDW7]" result="below the threshold"
binder="NPDALPETLV [ARHGAP6, O43182]" result=3.87
binder="DLDEEEDTHL [PODXL, O00592]" result="below the threshold"
binder="KLVIKTETTV [RASSF6, Q6ZTQ3]" result="below the threshold"

Below: the item to evaluate.
Looking for the measured pKd of GRLLGLETNV [ARHGEF26, Q96DR7] , can you help?
3.78
